# procedure_details: NCI Yeast Anticancer Drug Screen. Data for the sgs1 mgt1 strain (AID 161)
# condition_set: S. cerevisiae sgs1 mgt1 strain, at 50.0 µM
The panel holds about 79,000 compounds, 15% with a hit somewhere; the sample as a whole holds those more often. Calls of active or inactive are those of the source. No stated cut-off is given here; in the data, active means growth inhibition above about 70%; inactive means the rest.
Could you please pick one outcome from this set? y for active, n for inactive

GET /call?item= Cc1ccc(S(=O)(=O)N/N=C2/C(=O)N(c3ccc(Cl)cc3C)C(=O)C(=O)C2c2nc3ccccc3s2)cc1 (centres undefined) returns the recorded outcome of this test.
n

In this assay, the call recorded for CCN(CC)CCC(C(=O)O)(c1ccccc1)C1(O)CCCC1 (centres undefined) was what?
n

Record request — test call for CC(=O)CCCC(CC(C)O)[Si](C)(C)C (centres undefined)
n

Hi, sorry to bother you, what did the test record for CCO/C=C(/C#N)C(=O)OCC ?
n

Outcome? CC(=O)OC1CCC2(C)C(=CCC3C2CCC2(C)C(/C(C)=N/NC(N)=S)=CCC32)C1 (centres undefined)
n

Could you please tell me the result logged for CC12CC3CC(C)(C1)CC(SCCN=C(N)CCl)(C3)C2 in this assay?
y

// param item: O=c1c2cc([N+](=O)[O-])ccc2sc2ccsc12 ; yields the recorded call
n

Recorded test outcome, item COc1cccc2c1C(=O)C=CC2=O
y

Any idea what this test logged for CSc1nc2nc(C)[nH]c2c(=O)[nH]1 ?
n

Dear all, I need the recorded test outcome for Nc1cccc2c1C(=O)c1c(N)cccc1C2=O , thank you.
y

Could you check what this test reported for Cc1c2ccnc(C#N)c2c(C)c2c1[nH]c1ccccc12 ?
n

What was the test verdict on CC(=O)/C(=C/N1CCNC1=S)C(=O)Nc1ccc([N+](=O)[O-])cc1 ?
n

What did the test return for CCC(=O)Cc1ccc(OC)c(OC)c1 ?
n

Assay outcome for O=C(Nc1cccc(C(=O)Nc2ccc3cc(S(=O)(=O)O)cc(S(=O)(=O)O)c3c2)c1)Nc1cccc(C(=O)Nc2ccc3cc(S(=O)(=O)O)cc(S(=O)(=O)O)c3c2)c1 : what was it?
n

Any idea what this test logged for COc1cc(OC)c(NC(=O)C(Cl)(Cl)Cl)cc1Cl ?
n

Recorded test call requested for NNC(=O)C1CCC(=O)N1S(=O)(=O)c1ccccc1 (centres undefined)
n

Hi, sorry to bother you, what did the test record for CCN(C(=O)c1ccc([N+](=O)[O-])cc1)C(c1ccccc1)P(=O)(c1ccccc1)c1ccccc1 (centres undefined) ?
n

Kindly provide the recorded test outcome for the following molecule: CCOC(=O)C(c1ccccc1)N(CCCN(CC)CC)c1ccccc1 (centres undefined)
n

Fill in: this test's call for CC(=O)/C(=C/N1CCNC1=S)C(=O)Nc1ccc(Cl)cc1 is ___
n

What is the recorded call for this molecule in the test? CC(=O)OC(C(=O)N1CC1)C(OC(C)=O)C(OC(C)=O)C(OC(C)=O)C(=O)N1CC1 (centres undefined)
n

Hi, do you know how CC(=O)OCC1OC(N2C(=O)C(=O)c3cc(C)ccc32)C(OC(C)=O)C(OC(C)=O)C1OC(C)=O (centres undefined) came out in this test?
n

Given Nc1cc(S(=O)(=O)O)nc(N)[n+]1[O-] , state the outcome it received in this test.
n

I'd appreciate the recorded outcome for CC(C)CCCC(C)C1CCC2C3CCC4=C/C(=N/O)CCC4(C)C3CCC12C (centres undefined) from this test.
n

Fill in: this test's call for O=C(Nc1ccccc1)Oc1cccc(-c2ccc(-c3ccccc3)cc2)c1 is ___
n

Answer briefly: the call reported for COC(=O)C(=O)c1c(-c2ccc(O)c(OC)c2)[nH]c2[nH]n(-c3ccccc3)c(=O)c2c1=O in this assay.
n

Please state the recorded outcome for this molecule: O=c1c2cccnc2[nH]c2ccc3scnc3c12
n

Per the assay record, what outcome was assigned to COc1cc(C)cc(O)c1C=O ?
n

What call does the record list for CC(C)(O)c1cc(=O)n(-c2ccccc2)[nH]1 ?
n

Recorded call for Cc1cc(C(O)CCCc2ccccc2)cc(C)c1O (centres undefined) ?
n

Query: recorded result category for O=C1c2cc3c(cc2CC12Cc1cc4c(cc1C2=O)CCCC4)CCCC3 in this test
n

How was c1ccc(-c2ccc(C(=C(c3ccc(-c4ccccc4)cc3)c3ccc(-c4ccccc4)cc3)c3ccc(-c4ccccc4)cc3)cc2)cc1 classified in this test?
n

Please state the recorded outcome for this molecule: O=C(Nc1ccc(Cl)cc1)Nc1nnc2nc(C3(c4nc5nnc(NC(=O)Nc6ccc(Cl)cc6)n5[nH]c4=O)CCCC3=O)c(=O)[nH]n12
n

Hi, sorry to bother you, what did the test record for CCCCOC(OCCCC)C(OCCCC)OCCCC ?
n

Test call, this molecule: COc1cc([N+](=O)[O-])c2ncccc2c1OC
n

Hi team, can someone confirm the assay call for COC1=CC(=O)/C(=C(O)/C=C/c2ccccc2)C(=O)C1(C)C ?
n

Tell me the recorded outcome of this test for CC(C)(C)CC(C)(C)c1c(O)cc(O)cc1Cl .
y

Short answer needed: outcome of this test for [N-]=[N+]=NC[C@H]1OCO[C@H](CN=[N+]=[N-])[C@H]2OCCOCCOc3ccccc3OCCOCCO[C@@H]21 ?
n

Tell me the recorded outcome of this test for CC(c1ccccc1)n1cnc2c(Cl)ncnc21 (centres undefined) .
n

Please indicate how the test categorized Cc1ccc(C(=N)c2ccccc2Cc2ccccc2)cc1C .
n

Write down the call the test reported for this molecule. Item: CCCCC1CC(c2ccc(Cl)cc2)=NO1 (centres undefined)
n

Returns: the outcome recorded for C=CC(OC(=O)/C=C/C)OC(=O)/C=C/C in this assay.
n

Look up the recorded call for C[C@H]1CCC2C(OC(=O)[C@@H]2CN(C)C)[C@]2(C)C(=O)C=CC12O (some centres undefined) in this test.
n

Field: outcome | Entry: CC(C)(C)OC(=O)C(C1NC(C(=O)O)C(C)(C)S1)N1C(=O)c2ccccc2C1=O (centres undefined)
n

Please share the test call associated with COC(=O)CCCC(=O)NC1=C(NCc2ccccc2)C(=O)c2ccccc2C1=O .
n
